# Test system: HCC-2998 colon
# protocol details: NCI tumour cell line growth inhibition, 384-well format
Field: TGI. Provide a value for each of the compounds that follow.
Report the value in µM with no unit label.

Q) Give TGI; test system HCC-2998 colon; compound C=CC(=O)N[C@@H]1CN(c2nc(Nc3cn(C)nc3OC)c3ncn(C)c3n2)C[C@H]1F
A) 50

Q) Give TGI; test system HCC-2998 colon; compound C[C@@H](O)[C@@H](C)Oc1nc(Nc2ccc(S(=N)(=O)C3CC3)cc2)ncc1C(F)(F)F (some centres undefined)
A) 0.0333

Q) Give TGI; test system HCC-2998 colon; compound Cc1nnc(C[C@@H]2C=C(c3ccc(Cl)cc3)c3ccccc3-n3c(C)nnc32)o1
A) 2.46

Q) Give TGI; test system HCC-2998 colon; compound Cc1cc(F)c(C(=O)Nc2cccc(-c3nncn3C(C)C)n2)cc1-n1cnc(C2CC2)c1
A) 57.2

----------
# Tested on: SR leukemia
# protocol details: NCI tumour cell line growth inhibition, 384-well format
experimental readout: TGI (nM)
Report the value in nM with no unit label.

Q) Specify measured TGI for C[C@@H](O)[C@@H](C)Oc1nc(Nc2ccc(S(=N)(=O)C3CC3)cc2)ncc1C(F)(F)F (some centres undefined) .
A) 13.2

Q) Specify measured TGI for Cc1cc(F)c(C(=O)Nc2cccc(-c3nncn3C(C)C)n2)cc1-n1cnc(C2CC2)c1 .
A) 11200

Q) Specify measured TGI for Cc1nnc(C[C@@H]2C=C(c3ccc(Cl)cc3)c3ccccc3-n3c(C)nnc32)o1 .
A) 371

----------
Field: TGI. Provide a value for each of the molecules that follow.
# Tested on: LOX IMVI melanoma
# protocol details: NCI tumour cell line growth inhibition, 384-well format

Q) Specify measured TGI for C[C@@H](Nc1nc(N[C@H](C)C(F)(F)F)nc(-c2cccc(Cl)n2)n1)C(F)(F)F .
A) > 100000 nM

Q) Specify measured TGI for Cc1nnc(C[C@@H]2C=C(c3ccc(Cl)cc3)c3ccccc3-n3c(C)nnc32)o1 .
A) 469 nM

Q) Specify measured TGI for Cc1cc(F)c(C(=O)Nc2cccc(-c3nncn3C(C)C)n2)cc1-n1cnc(C2CC2)c1 .
A) 28900 nM

Q) Specify measured TGI for C[C@@H](O)[C@@H](C)Oc1nc(Nc2ccc(S(=N)(=O)C3CC3)cc2)ncc1C(F)(F)F (some centres undefined) .
A) 48.9 nM

----------
# Tested on: CCRF-CEM leukemia
# protocol details: NCI tumour cell line growth inhibition, 384-well format; in the data active means GI50 below about 0.43 µM; inactive means the rest
Can you answer with just one of these options? active, inactive

Q) // return assay outcome for Cc1nnc(C[C@@H]2C=C(c3ccc(Cl)cc3)c3ccccc3-n3c(C)nnc32)o1
A) active

Q) // return assay outcome for C=CC(=O)N[C@@H]1CN(c2nc(Nc3cn(C)nc3OC)c3ncn(C)c3n2)C[C@H]1F
A) inactive

Q) // return assay outcome for COc1cc2c(Oc3ccc(NC(=O)C4(C(=O)Nc5ccc(F)cc5)CC4)cc3F)ccnc2cc1OCCCN1CCOCC1
A) active

Q) // return assay outcome for C[C@@H](Nc1nc(N[C@H](C)C(F)(F)F)nc(-c2cccc(Cl)n2)n1)C(F)(F)F
A) inactive

----------
# System: SR leukemia
# protocol details: NCI tumour cell line growth inhibition, 384-well format; in the data active = GI50 below about 0.43 µM; inactive = the rest
Can you answer with just one of these options? TRUE = active, FALSE = inactive

Q) // return assay outcome for Cc1cc(F)c(C(=O)Nc2cccc(-c3nncn3C(C)C)n2)cc1-n1cnc(C2CC2)c1
A) FALSE

Q) // return assay outcome for C[C@@H](O)[C@@H](C)Oc1nc(Nc2ccc(S(=N)(=O)C3CC3)cc2)ncc1C(F)(F)F (some centres undefined)
A) TRUE

Q) // return assay outcome for COc1cc2c(Oc3ccc(NC(=O)C4(C(=O)Nc5ccc(F)cc5)CC4)cc3F)ccnc2cc1OCCCN1CCOCC1
A) TRUE

Q) // return assay outcome for C=CC(=O)N[C@@H]1CN(c2nc(Nc3cn(C)nc3OC)c3ncn(C)c3n2)C[C@H]1F
A) FALSE
